src = the nanobody polyreactivity screen of Harvey et al. (2022)

experiment-notes: yeast display, Sf9 membrane polyspecificity reagent, FACS + sequencing; frameworks hold sequencing errors
measure-name: polyreactivity (PSR sort gate)

Worked set:
sequence-text	test-value
HVQLVESGGGLVQAGGSLRLSCAASGSTVRRYAMGWYRQAPGKEREFVASITWRGGGTYYADSVKGRFTISRDNAKNTVYLQMNSLKPEETAVYYCASATQVRGHSLPYGYWGQGTQVTVSS	high polyreactivity
QVQLVESGGGLVQAGGSLRLSCAASGRTFLRYAMGWYREAPGKERELVAAITYGGRTNFADSVKGRFTISRDNAKNTVYFQMNSLKPEDTAVYYCAADRTYYYGLRVDYWGQGTQVTVSS	high polyreactivity
QVQLVESGGGLVQAGGSLRLSCAASGITFDEYAMGWYRQAPGKERELVASISAGSTYYADSVKGRFTISRDNAKNTVYLQMNSLKPEDTAVYYCAVVVDYDAYRYWGYDYWGQGTQVTVSS	high polyreactivity
QVQLVESGGGLVQAGGSLRLSCAASGFIFSHYTMGWYRQAPGKERELVAGISWSGGNTYYADSVKGRFTISRDNAKNTVYLQMISLKPEDTAVYYCNADWIGVPLAYDYWGQGTQVTVSS	low polyreactivity

Looking for the measured polyreactivity (PSR sort gate) of `QVQLVESGGGLVQAGGSLRLSCAASGRIFINNAMGWYRQAPGKEREFVAAITSGGRTYYADSVKGRFTISRDNAKNTVYLQMNSLKPEDTAVYYCAARYYRQYTRHYGYGYWGQGTQVTVSS` , can you help?
high polyreactivity

Looking for the measured polyreactivity (PSR sort gate) of `QVQLVESGGGLVQAGGSLRLSCAASGRIFRINTMGWNRQAPGKERELVAAIRTSGSSTYADSVKGRFTISRDNAKNTVYLQMNSLKPEDTAVYYCNTKYPGRGYYWGQGTQVTVSS` , can you help?
high polyreactivity

Looking for the measured polyreactivity (PSR sort gate) of `QVQLVESGGGLVQAGGSLRLSCAASGSTFRYYAMGWYRQAPGKEREFVAAINWSGTSTYYADSVKGRFTISRDNAKNTVYLQMNRLKPEDTAVYYCNARYGLRYVRYGEMDYWGQGTQVTVSA` , can you help?
high polyreactivity

Looking for the measured polyreactivity (PSR sort gate) of `QVQLVESGGGLVQAGGSLRLSCAASGRIFAYNAMGWYRQAPGKERELVAAITWSGGITYYADSVKGRFTISRDNAKNTVYLQMNSLKPEDTAVYYCNVYVSAGEEDEYWGQGTQVTVSS` , can you help?
low polyreactivity

Looking for the measured polyreactivity (PSR sort gate) of `QVQLVESGGGLVQAGGSLRLSCAASGINFYYYTMGWYRQAPGKERELVAGITRGGRTYYADSVKGRFTISRDNAKNTVYLQMNSLKPEDTAVYYCNADPWWRFDYWGQGTQVTVSS` , can you help?
low polyreactivity

Looking for the measured polyreactivity (PSR sort gate) of `QVQLVESGGGLVQAGGSLRLSCAASGSIFAVYAMGWYRQAPGKEREFVARISWGGGRTYYADSVKGRCTISRDNAKNPVYLQMNSLKPEDTAVYYCAATFRARPRENYWGQGTQVTVSS` , can you help?
high polyreactivity

Looking for the measured polyreactivity (PSR sort gate) of `QVQLVESGGGLVQAGGSLRLSCAASGRIFLGNVMGWSRQAPGKERELVAAISSGGSTNYADSVKGRFTISRDNAKNTVYLQMNSLKPEDTAVYYCAAYFVRDWKLYYYWGQGTHVTVSS` , can you help?
low polyreactivity
